- subject.of.test: T1, CEACAM1 (Sino Biological) (human, UniProt P13688 35-428, limits assumed)
- T1 construct: may be the same as CEACAM1-HIS; also called hCEACAM1; biotinylated soluble CEACAM1
- T1 sequence: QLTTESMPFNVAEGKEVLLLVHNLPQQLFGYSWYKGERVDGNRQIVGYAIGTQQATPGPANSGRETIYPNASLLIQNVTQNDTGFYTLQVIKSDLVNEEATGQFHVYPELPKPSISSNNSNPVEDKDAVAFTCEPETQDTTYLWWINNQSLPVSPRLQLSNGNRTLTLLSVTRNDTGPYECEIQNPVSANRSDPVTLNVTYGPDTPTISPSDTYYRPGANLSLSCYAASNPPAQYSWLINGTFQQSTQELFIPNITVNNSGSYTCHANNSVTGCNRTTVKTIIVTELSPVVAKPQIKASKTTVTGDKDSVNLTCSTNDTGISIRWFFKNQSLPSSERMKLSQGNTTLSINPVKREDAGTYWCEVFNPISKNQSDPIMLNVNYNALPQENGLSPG
- assay.method.text: SPR single-cycle
pKd: −log10 of the molar value.
Each entry below lists one item and its recorded pKd value.

binder	pKd
He3/L1 (antibody, IgG4, V domains shown, IgG4 S241P, kappa) VH: EVQLLESGGGLVQPGGSLRLSCAASGFSFSDYYLYWVRQAPGKGLEWVATISVGGGQTSYADSVKGRFTISRDNSKNTLYLQMNSLRAEDTAMYYCTRALTYGPAWLAYWGQGTLVTVSS VL: DIVMTQSPDSLAVSLGERATINCKSSQSLLNSANQKNYLAWYQQKPGQPPKLLIYFASTRESGVPDRFSGSGSGTDFTLTISSLQAEDVAVYYCQSHYPFYYTFGGGTKVEIK	7.21
He4/L3 (antibody, IgG4, V domains shown, IgG4 S241P, kappa) VH: EVQLLESGGGLVQPGGSLRLSCAASGFSFSDYYLYWVRQAPGKGLEWVATISVGGGQTSYADSVKGRFTISRDNSKNTLYLQMNSLRAEDTAMYYCTRALYYGPAWFAYWGQGTLVTVSS VL: DIVMTQSPDSLAVSLGERATINCKSSQSLLNSANQKNYLAWYQQKPGQPPKLLIYFASTRESGVPDRFSGSGSGTDFTLTISSLQAEDVAVYYCQSHFPFPFTFGGGTKVEIK	7.26
He9/L6 (antibody, IgG4, V domains shown, IgG4 S241P, kappa; also called He9 / 6) VH: EVQLLESGGGLVQPGGSLRLSCAASGFSFSDYYLYWVRQAPGKGLEWVATISVGGGQTSYADSVKGRFTISRDNSKNTLYLQMNSLRAEDTAMYYCARAMYYGPAWFAYWGQGTLVTVSS VL: DIVMTQSPDSLAVSLGERATINCKSSQSLLNSANQKNYLAWYQQKPGQPPKLLIYFASTRESGVPDRFSGSGSGTDFTLTISSLQAEDVAVYYCQSHYPFSFTFGGGTKVEIK	7.66
He6/L17 (antibody, IgG4, V domains shown, IgG4 S241P, kappa) VH: EVQLLESGGGLVQPGGSLRLSCAASGFSFSDYYLYWVRQAPGKGLEWVATISVGGGQTSYADSVKGRFTISRDNSKNTLYLQMNSLRAEDTAMYYCARARTYGPAWFAYWGQGTLVTVSS VL: DIVMTQSPDSLAVSLGERATINCKSSQSLLNSANQKNYLAWYQQKPGQPPKLLIYFASTRESGVPDRFSGSGSGTDFTLTISSLQAEDVAVYYCQSHYPYPYTFGGGTKVEIK	7.04
He3/L6 (antibody, IgG4, V domains shown, IgG4 S241P, kappa) VH: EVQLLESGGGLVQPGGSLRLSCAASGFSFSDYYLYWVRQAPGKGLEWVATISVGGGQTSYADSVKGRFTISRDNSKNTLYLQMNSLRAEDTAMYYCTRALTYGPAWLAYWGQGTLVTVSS VL: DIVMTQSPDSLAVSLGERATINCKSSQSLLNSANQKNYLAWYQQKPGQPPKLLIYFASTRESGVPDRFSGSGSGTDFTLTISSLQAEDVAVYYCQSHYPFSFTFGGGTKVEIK	7.03
